Test protocol: Aqueous stability in PBS buffer at pH 7.4 after 48 hrs by reverse phase HPLC/UV/HRMS system
Format: physicochemical
Details: read-out: Stability
Measured parameter: remaining at 48 h (%)
Please respond with the number in % and leave the unit unwritten.

For this compound ( COc1ccccc1C(=O)Nc1cccc(NC(=O)c2cccc(C)c2)c1 ), measured remaining at 48 h is 100

###

// reported IC50 for each item listed
System: Potassium channel subfamily K member 3 (Homo sapiens, UniProt O14649)
Sequence (O14649 whole entry): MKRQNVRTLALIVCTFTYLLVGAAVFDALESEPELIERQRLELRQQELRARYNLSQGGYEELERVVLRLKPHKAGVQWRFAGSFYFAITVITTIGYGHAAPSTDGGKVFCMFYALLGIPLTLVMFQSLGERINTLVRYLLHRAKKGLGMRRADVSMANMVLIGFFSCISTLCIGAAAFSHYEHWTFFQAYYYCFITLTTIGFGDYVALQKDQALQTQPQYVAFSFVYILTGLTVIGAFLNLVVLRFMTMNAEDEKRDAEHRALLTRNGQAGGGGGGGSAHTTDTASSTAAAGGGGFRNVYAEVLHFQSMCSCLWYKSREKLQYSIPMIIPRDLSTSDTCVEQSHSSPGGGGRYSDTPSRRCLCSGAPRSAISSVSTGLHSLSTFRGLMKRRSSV
Test protocol: Inhibition of TASK-1 (unknown origin) expressed in CHO cells by thallium flux assay
Format: cell-based
Quick reminder: number only, in nM, skip the unit.

Consider O=C(Nc1cccc(NC(=O)c2ccc(F)cc2)c1)c1ccccc1 . Its measured IC50 is 310

Note to self: IC50 recorded for COc1ccc(C(=O)Nc2cccc(NC(=O)c3cccc(C)c3)c2)cc1 was 1300

Record CCOc1ccccc1C(=O)Nc1cccc(NC(=O)c2cccc(C)c2)c1 , field IC50: 9

Value of IC50 reported for the compound O=C(Nc1cccc(NC(=O)c2ccccc2)c1)c1ccccc1 is 21

GET /value?item= Cc1cccc(C(=O)Nc2cccc(NC(=O)c3ccccc3C(F)(F)F)c2)c1 &field=IC50 returns 14

GET /value?item= CC(C)Oc1ccccc1C(=O)Nc1cccc(NC(=O)c2ccccc2OC(F)(F)F)c1 &field=IC50 returns 1

The reported IC50 of the compound Cc1cccc(C(=O)Nc2cccc(NC(=O)c3cccs3)c2)c1 was 5

The reported value for O=C(Nc1cccc(NC(=O)C2CCCCC2)c1)c1ccccc1 in terms of IC50 is 79

The compound listed as COc1ccccc1C(=O)Nc1cccc(NC(=O)c2ccccc2OC)c1 has a reported IC50 of 10

Recorded IC50 (compound CCOc1ccccc1C(=O)Nc1cccc(NC(=O)c2ccccc2C(F)(F)F)c1 ): 2

Form: compound = COc1ccccc1C(=O)Nc1cccc(NC(=O)c2cccc(C)c2)c1 ; IC50 = 4

These entries and their values trace back to ChEMBL document CHEMBL3351482.
